# System: D93 binding to human denatured-collagen IV
# TEST DETAILS: Competition ELISA: synthetic peptides blocking D93 binding to heat denatured collagen IV
# ASSAY SETUP: peptide inhibitor concentration 100 μM; average of two studies; vs 1% BSA/PBS alone
Square brackets hold non-standard residues; d marks the D form. Ends that are not written are not given here. Hyp = O=C(O)[C@@H]1C[C@@H](O)CN1
Classify as follows. Reported % INHIBITION OF BINDING OF D93 TO HUMAN DENATURED-COLLAGEN IV greater than or equal to 80%: True. Reported % INHIBITION OF BINDING OF D93 TO HUMAN DENATURED-COLLAGEN IV below: False.

- SUBSTANCE: "LPGTPG (L[Hyp]GT[Hyp]G) [SEQ ID NO: 27]"
  ASSAYED TARGET: "D93 binding to human denatured-collagen IV"
  LABEL VALUE: "False"
- SUBSTANCE: "PGPPGPPGP (PGP[Hyp]GP[Hyp]GP) [SEQ ID NO: 29]"
  ASSAYED TARGET: "D93 binding to human denatured-collagen IV"
  LABEL VALUE: "True"
- SUBSTANCE: "PGPPGPPGPY (PGP[Hyp]GP[Hyp]GPY) [SEQ ID NO: 28]"
  ASSAYED TARGET: "D93 binding to human denatured-collagen IV"
  LABEL VALUE: "True"

hey, is % INHIBITION OF BINDING OF D93 TO HUMAN DENATURED-COLLAGEN IV for this one >= 80%? F-Hyp-G-P-Hyp-G-P-D-G-L-P-G-S-M-G-P-Hyp-G (F[Hyp]GP[Hyp]GPDGLPGSMGP[Hyp]G) [SEQ ID NO: 36]
True

hey, is % INHIBITION OF BINDING OF D93 TO HUMAN DENATURED-COLLAGEN IV for this one >= 80%? LPGFPGC [SEQ ID NO: 37, reference compound]
False

hey, is % INHIBITION OF BINDING OF D93 TO HUMAN DENATURED-COLLAGEN IV for this one >= 80%? GPPGPPGP (GPXGPXGP; MOD_RES (3) Hydroxyproline; MOD_RES (6) Hydroxyproline) [SEQ ID NO: 31]
False

hey, is % INHIBITION OF BINDING OF D93 TO HUMAN DENATURED-COLLAGEN IV for this one >= 80%? LPGSPG (L[Hyp]GS[Hyp]G) [SEQ ID NO: 26]
False

hey, is % INHIBITION OF BINDING OF D93 TO HUMAN DENATURED-COLLAGEN IV for this one >= 80%? CTWPRHHTTDALL [SEQ ID NO: 39, reference compound]
False

hey, is % INHIBITION OF BINDING OF D93 TO HUMAN DENATURED-COLLAGEN IV for this one >= 80%? PGAKGLPGP ([Hyp]GAKGLPGP) [SEQ ID NO: 17]
False

hey, is % INHIBITION OF BINDING OF D93 TO HUMAN DENATURED-COLLAGEN IV for this one >= 80%? LPGPPGPPGP (LPGP[Hyp]GP[Hyp]GP) [SEQ ID NO: 20]
True

hey, is % INHIBITION OF BINDING OF D93 TO HUMAN DENATURED-COLLAGEN IV for this one >= 80%? LPGLPG (L[Hyp]GL[Hyp]G) [SEQ ID NO: 25]
False
